Source of measurements: PubChem BioAssay (NCI)

System: CCRF-CEM leukemia
Test: NCI tumour cell line growth inhibition, 48 h; in the data active = GI50 below about 0.43 µM; inactive = the rest
Classes used: active, inactive

MOLECULE	ASSAY TARGET	CLASSIFICATION
O=C(c1ccccc1)c1ccc(N2C(=O)C3C4c5ccccc5C(/C=C/C(=O)c5ccccn5)(c5ccccc54)C3C2=O)cc1 (centres undefined)	CCRF-CEM leukemia	inactive
Cc1c(N)nc(C2CC(=O)N2CC(N)C(N)=O)nc1C(=O)NC(C(=O)NC(C)C(O)C(C)C(=O)NC(C(=O)NCCc1nc(-c2nc(C(=O)NCCNCC(C)O)cs2)cs1)C(C)O)C(OC1OC(CO)C(O)C(O)C1OC1OC(CO)C(O)C(OC(N)=O)C1O)c1cnc[nH]1 (centres undefined)	CCRF-CEM leukemia	inactive
Oc1ccc(/C=N/Nc2nnc(N/N=C/c3ccc(O)cc3O)c3ccccc23)c(O)c1	CCRF-CEM leukemia	active
COc1ccc(Cl)cc1Nc1nc(C(F)(F)F)ccc1C(=O)N/N=C/c1ccc(Cl)cc1	CCRF-CEM leukemia	inactive
O=C(Nc1cccc(C(F)(F)F)c1)Nc1ccc(OCc2nnc(-c3ccccc3)o2)c(F)c1	CCRF-CEM leukemia	inactive
CCn1c(SC)nnc1-c1cc2c([nH]c3ccccc32)c(-c2cccc(O)c2)n1	CCRF-CEM leukemia	inactive
Nc1ccc(N)c2c1C(=O)c1cccc([N+](=O)[O-])c1C2=O	CCRF-CEM leukemia	inactive
COc1cc(-c2nn(-c3cccc(NC(=O)c4cccc(C(F)(F)F)c4)c3)cc2-c2ccncc2)ccc1Cl	CCRF-CEM leukemia	inactive
O=C1C(=O)c2c(ccc3ccccc23)-c2ccccc21	CCRF-CEM leukemia	inactive
OCCn1c(-c2ccncc2)c(-c2ccc(F)cc2)c2ncccc21	CCRF-CEM leukemia	inactive
N#Cc1c(N)nc(N2CCOCC2)c(C#N)c1-c1ccc(Cl)cc1Cl	CCRF-CEM leukemia	inactive
Cn1c(=O)c(-c2c(Cl)cccc2Cl)cc2cnc(Nc3ccc(N4CCOCC4)cc3)nc21	CCRF-CEM leukemia	active
CN(C)C(=O)c1cc2cnc(Nc3ccc(N4CCNCC4)cn3)nc2n1C1CCCC1	CCRF-CEM leukemia	inactive
COc1ccc(S(=O)(=O)NCCCNc2nccc(-c3c(-c4ccc(F)cc4)nc4sccn34)n2)cc1	CCRF-CEM leukemia	inactive
